Reference source for all entries: PubChem BioAssay (NCI)

growth inhibition values for the compounds below.
# assay_procedure: NCI Yeast Anticancer Drug Screen. Data for the bub3 strain (AID 167)
# settings: S. cerevisiae bub3 mutant strain, at 50.0 µM, hits give high values
Compounds without any hit were thinned out: in the full panel of roughly 79,000, 15% have a hit. Active and inactive are the calls of the source. Rule as the data show it: active = growth inhibition above about 70%; inactive = the rest.

Answered examples (10):
COC(=O)c1ccccc1C1CN=NC12Cc1c(C)ccc(C)c1C2=O (stereo not given) ... 3.55% (inactive)
CSc1nc2c(nc(N)n2C2OC(CO)C(O)C(O)C2O)c(=O)[nH]1 (stereo not given) ... -6.2% (inactive)
CCC(C)(O)P(=O)(O)O (stereo not given) ... 0.85% (inactive)
COc1nc(Cl)cc2nc(Cl)cn12 ... -11.8% (inactive)
C=CCN(CC=C)C(=O)C(=C)C ... 3.7% (inactive)
Cc1ccc(S(=O)(=O)N/N=C2/CC3CCC4CC2CC34)cc1 (stereo not given) ... 12.9% (inactive)
Clc1ccc2c(c1)[nH]c1c2nc2sccn21 ... -12.9% (inactive)
CC1(C)OC(COCCOCCCCCO)C(COCCOCCCCCO)O1 (stereo not given) ... -3.05% (inactive)
CCCCCc1ccccn1 ... 12.1% (inactive)
CCCCCCCCCC(=O)N/N=C/c1ccco1 ... 69.4% (inactive)

Request: Endpoint output: growth inhibition of "O=C(CCN1CCCC1)c1ccccc1" . Value?
Response: -10.6% (inactive)

Request: Endpoint output: growth inhibition of "CN1CCn2c(Br)ccc2C1=O" . Value?
Response: 2.65% (inactive)

Request: Endpoint output: growth inhibition of "O=C(Nc1ccc(F)c([N+](=O)[O-])c1)N(Cc1ccccc1)c1ccccc1" . Value?
Response: 26.9% (inactive)

Request: Endpoint output: growth inhibition of "CCCCn1cnc2ccc3[nH]c(C)nc3c2c1=O" . Value?
Response: -6.35% (inactive)

Request: Endpoint output: growth inhibition of OC(CC(O)(C(F)(F)F)C(F)(F)F)c1cccs1 (stereo not given) . Value?
Response: -5.45% (inactive)

Request: Endpoint output: growth inhibition of "O=C1CCC2=NCc3c(ccc4ccccc34)N12" . Value?
Response: -12.3% (inactive)

Request: Endpoint output: growth inhibition of CCCC(C)C(=O)OC1CCCCC1C (stereo not given) . Value?
Response: 8.1% (inactive)

Request: Endpoint output: growth inhibition of "COC(=O)c1ccccc1NC(=NC1CCCCCC1)NS(=O)(=O)c1ccc(C)cc1" . Value?
Response: 0.3% (inactive)
